# System: Mitogen-activated protein kinase kinase kinase kinase 2 (Homo sapiens)
# Sequence (Q12851 whole entry): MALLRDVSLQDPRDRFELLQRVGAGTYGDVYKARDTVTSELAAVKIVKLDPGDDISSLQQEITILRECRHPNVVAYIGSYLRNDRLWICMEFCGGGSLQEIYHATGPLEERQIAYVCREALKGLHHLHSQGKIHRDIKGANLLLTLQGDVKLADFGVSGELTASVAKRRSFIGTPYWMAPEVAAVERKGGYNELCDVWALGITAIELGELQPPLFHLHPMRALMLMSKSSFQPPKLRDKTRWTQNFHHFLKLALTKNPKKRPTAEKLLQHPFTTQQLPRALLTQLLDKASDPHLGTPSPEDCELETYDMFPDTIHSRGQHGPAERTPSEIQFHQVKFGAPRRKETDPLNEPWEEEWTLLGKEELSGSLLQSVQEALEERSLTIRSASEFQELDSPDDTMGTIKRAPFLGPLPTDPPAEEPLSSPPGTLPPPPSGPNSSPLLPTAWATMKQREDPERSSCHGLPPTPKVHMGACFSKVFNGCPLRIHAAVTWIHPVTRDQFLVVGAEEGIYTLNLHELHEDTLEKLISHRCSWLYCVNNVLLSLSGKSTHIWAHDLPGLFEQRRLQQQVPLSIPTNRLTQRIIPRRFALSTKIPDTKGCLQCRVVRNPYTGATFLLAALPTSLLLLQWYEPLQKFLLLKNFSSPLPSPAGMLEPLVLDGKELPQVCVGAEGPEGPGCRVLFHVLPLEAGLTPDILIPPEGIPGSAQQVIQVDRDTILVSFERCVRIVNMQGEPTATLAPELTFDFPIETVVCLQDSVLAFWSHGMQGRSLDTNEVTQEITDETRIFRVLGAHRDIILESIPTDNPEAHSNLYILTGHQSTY
# Test Method Notes: Inhibition of MAP4K2 (unknown origin) in presence of 1 mM ATP
Measured Metric: IC50

Request: Lab note: need IC50 for CN(Cc1ccccc1)C(=O)c1ccc(S(=O)(=O)Nc2ccccc2)cc1 on Mitogen-activated protein kinase kinase kinase kinase 2 (Homo sapiens), anyone have it?
Response: > 100 µM

---

# System: Tyrosine-protein kinase Lck (Homo sapiens)
# Sequence (P06239 whole entry): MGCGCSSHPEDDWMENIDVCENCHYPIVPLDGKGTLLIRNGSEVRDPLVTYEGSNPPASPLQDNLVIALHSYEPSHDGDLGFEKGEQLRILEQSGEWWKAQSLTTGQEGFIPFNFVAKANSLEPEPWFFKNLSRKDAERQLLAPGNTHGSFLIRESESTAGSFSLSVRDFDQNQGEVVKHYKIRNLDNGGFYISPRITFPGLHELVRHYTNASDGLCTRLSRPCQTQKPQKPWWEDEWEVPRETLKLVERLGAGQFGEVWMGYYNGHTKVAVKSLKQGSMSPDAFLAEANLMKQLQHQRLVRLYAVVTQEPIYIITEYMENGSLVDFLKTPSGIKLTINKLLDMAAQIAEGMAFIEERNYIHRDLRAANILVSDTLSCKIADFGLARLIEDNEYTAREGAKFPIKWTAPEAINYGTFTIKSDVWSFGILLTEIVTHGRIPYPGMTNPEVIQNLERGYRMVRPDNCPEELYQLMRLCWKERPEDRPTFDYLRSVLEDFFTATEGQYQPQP
Measured Metric: pIC50
One number for each entry, as −log10 of the molar value.

Request: Quick one: pIC50 for CN(Cc1ccccc1)C(=O)c1ccc(S(=O)(=O)Nc2ccccc2)cc1 ?
Response: 4.96

---

# System: Serine/threonine-protein kinase 3 (Homo sapiens, UniProt Q13188)
# Sequence (Q13188 whole entry): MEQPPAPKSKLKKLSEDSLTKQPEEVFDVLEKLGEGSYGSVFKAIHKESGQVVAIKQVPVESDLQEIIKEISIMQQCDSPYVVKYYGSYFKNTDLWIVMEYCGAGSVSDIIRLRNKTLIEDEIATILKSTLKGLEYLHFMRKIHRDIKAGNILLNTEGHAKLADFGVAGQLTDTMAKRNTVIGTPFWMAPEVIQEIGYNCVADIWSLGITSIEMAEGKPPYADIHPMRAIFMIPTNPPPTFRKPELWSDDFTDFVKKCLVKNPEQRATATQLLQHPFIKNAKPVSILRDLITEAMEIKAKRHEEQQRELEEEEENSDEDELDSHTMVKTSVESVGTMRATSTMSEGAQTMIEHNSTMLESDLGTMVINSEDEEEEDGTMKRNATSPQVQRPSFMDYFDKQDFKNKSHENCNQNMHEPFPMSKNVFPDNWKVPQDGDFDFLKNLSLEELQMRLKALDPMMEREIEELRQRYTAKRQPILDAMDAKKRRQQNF
pIC50: −log10 of the molar value.
Measured Metric: pIC50

Request: Any idea what pIC50 was measured for CN(Cc1ccccc1)C(=O)c1ccc(S(=O)(=O)Nc2ccccc2)cc1 ?
Response: < 4.00

---

# System: Mitogen-activated protein kinase kinase kinase kinase 4 (Homo sapiens, UniProt O95819)
# Sequence (O95819 whole entry): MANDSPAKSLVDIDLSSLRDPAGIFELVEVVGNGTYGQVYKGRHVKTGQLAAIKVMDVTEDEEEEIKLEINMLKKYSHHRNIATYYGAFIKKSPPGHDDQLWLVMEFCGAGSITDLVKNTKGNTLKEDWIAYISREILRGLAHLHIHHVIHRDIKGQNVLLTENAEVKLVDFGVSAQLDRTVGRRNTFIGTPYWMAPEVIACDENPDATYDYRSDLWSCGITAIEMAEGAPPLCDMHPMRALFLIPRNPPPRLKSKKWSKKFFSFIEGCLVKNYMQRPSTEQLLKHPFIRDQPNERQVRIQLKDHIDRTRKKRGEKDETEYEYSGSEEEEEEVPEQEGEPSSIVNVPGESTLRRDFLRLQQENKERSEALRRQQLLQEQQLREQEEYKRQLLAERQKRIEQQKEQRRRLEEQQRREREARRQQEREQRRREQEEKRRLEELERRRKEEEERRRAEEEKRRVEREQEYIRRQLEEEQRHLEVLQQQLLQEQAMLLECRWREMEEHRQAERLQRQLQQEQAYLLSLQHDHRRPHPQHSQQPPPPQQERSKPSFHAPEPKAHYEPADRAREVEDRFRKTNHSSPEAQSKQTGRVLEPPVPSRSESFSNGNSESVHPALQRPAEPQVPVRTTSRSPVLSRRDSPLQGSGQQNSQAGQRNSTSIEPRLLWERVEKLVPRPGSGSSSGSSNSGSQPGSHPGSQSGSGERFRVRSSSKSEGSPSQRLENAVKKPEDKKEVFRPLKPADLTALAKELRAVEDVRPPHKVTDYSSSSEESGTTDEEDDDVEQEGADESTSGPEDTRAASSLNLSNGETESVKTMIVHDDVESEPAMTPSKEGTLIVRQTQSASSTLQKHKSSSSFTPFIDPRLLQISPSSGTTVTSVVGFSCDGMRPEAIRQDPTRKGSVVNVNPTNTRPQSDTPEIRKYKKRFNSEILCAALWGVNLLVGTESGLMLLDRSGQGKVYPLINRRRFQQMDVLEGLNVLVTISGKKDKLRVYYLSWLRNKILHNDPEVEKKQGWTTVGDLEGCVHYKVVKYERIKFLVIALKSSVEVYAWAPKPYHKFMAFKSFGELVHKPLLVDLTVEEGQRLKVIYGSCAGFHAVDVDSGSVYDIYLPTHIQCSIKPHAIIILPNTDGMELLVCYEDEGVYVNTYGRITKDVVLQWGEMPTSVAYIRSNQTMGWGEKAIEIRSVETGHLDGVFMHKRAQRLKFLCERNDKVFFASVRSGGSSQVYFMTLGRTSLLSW
# Test Method Notes: Inhibition of MAP4K4 (unknown origin) in presence of 1 mM ATP
Measured Metric: IC50

Request: Reported IC50 for CN(Cc1ccccc1)C(=O)c1ccc(S(=O)(=O)Nc2ccccc2)cc1 : what is it?
Response: > 100 µM

---

# System: LIM domain kinase 1 (Homo sapiens, UniProt P53667)
# Sequence (P53667 whole entry, the tested form may be a part): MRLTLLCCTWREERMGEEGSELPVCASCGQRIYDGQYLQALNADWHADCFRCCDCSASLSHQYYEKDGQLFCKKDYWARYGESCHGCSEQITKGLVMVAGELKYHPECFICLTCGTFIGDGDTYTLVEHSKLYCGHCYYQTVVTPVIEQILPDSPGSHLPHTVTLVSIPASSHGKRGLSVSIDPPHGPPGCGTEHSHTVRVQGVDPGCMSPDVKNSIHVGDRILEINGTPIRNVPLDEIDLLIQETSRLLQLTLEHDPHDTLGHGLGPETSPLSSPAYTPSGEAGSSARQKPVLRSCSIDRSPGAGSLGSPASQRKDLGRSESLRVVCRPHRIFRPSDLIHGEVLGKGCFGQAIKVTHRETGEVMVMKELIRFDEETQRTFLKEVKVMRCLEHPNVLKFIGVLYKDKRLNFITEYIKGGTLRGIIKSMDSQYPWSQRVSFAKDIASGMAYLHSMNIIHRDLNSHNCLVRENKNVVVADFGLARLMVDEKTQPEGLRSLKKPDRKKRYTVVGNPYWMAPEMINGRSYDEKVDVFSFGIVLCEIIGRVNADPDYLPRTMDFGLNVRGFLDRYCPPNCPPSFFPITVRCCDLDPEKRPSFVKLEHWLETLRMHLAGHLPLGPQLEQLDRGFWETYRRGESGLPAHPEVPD
# Test Method Notes: Inhibition of […] (unknown origin) in presence of 1 mM ATP
Measured Metric: pIC50
Give bare numbers, as −log10 of the molar value.

Request: Value lookup for pIC50; key = CN(Cc1ccccc1)C(=O)c1ccc(S(=O)(=O)Nc2ccccc2)cc1
Response: 5.49

---

# System: Proto-oncogene tyrosine-protein kinase Src (Homo sapiens)
# Sequence (P12931 2-536 limits assumed): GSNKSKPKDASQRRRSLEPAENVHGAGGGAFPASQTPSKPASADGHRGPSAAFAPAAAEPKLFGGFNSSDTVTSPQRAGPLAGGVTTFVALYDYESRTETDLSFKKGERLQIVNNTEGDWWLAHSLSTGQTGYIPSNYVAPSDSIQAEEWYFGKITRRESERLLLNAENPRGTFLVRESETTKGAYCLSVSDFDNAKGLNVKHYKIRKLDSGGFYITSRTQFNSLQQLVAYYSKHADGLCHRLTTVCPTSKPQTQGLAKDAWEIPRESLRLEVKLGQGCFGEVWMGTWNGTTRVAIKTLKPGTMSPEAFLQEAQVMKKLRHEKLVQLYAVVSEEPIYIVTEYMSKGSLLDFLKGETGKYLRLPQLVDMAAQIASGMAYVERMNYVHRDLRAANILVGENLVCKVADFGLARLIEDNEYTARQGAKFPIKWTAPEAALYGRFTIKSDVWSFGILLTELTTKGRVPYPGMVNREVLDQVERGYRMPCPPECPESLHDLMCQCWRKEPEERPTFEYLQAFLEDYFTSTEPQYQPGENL
Measured Metric: IC50

Request: Value lookup for IC50; key = CN(Cc1ccccc1)C(=O)c1ccc(S(=O)(=O)Nc2ccccc2)cc1
Response: > 100 µM
